# Study system: T1, CRBN, Q96SW2;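 also: pooled lentiviral library of zinc finger degron-EGFP fusions in mCherry-positive Jurkat cells, FACS-sorted after compound exposure, with degron abundance counted by next-generation sequencing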
# T1 chain: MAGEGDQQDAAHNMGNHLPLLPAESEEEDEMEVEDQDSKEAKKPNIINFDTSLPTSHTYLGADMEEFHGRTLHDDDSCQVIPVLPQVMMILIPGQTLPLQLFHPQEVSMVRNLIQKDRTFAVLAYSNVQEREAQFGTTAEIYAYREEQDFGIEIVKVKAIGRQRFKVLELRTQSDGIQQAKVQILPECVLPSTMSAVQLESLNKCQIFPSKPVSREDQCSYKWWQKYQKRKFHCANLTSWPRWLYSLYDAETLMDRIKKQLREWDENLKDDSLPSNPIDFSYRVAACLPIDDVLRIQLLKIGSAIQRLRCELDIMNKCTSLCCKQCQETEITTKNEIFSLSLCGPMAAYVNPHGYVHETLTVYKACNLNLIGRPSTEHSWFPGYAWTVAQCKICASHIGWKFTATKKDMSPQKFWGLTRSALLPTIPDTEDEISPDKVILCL
# Experiment description: log2 fold change of degron read counts, EGFP-low vs EGFP+ sorted cells (limma voom), compound-induced degradation; higher = more compound-induced degradation of the degron-EGFP fusion; degrons are variants of IKZF1/3 zinc finger 2; compound dose not given here
# Conditions used: Jurkat; 18 h; compound: compound 19 (5-tert-butyl-thalidomide)
Over roughly 8,300 sequences, “log2 fold change of degron read counts, EGFP-low vs EGFP+ sorted cells (limma voom), compound-induced degradation” has its median near -1.1; the highest 2% begin near 3.2. This is one part of a sample in which the highest values are shown more often than they occur.
Binary classification by log2 fold change of degron read counts, with 2 as an inclusive lower bound for Criterion met; all other cases are Criterion not met.

LSCEICGFACTQKGNLLRHIKL [46L_47S_49E_50I_52G_53F_54A_55C_67L_, Q9UKT9] = Criterion met
FICDICGARFTQKGNLLRHIKL [46F_47I_49D_50I_52G_53A_54R_55F_67L_, Q9UKT9] = Criterion not met

Textbook exercise: given the entry FCCNICGASFTQKGNLLRHIKL [46F_47C_49N_50I_52G_53A_54S_55F_67L_, Q9UKT9] , state whether its log2 fold change of degron read counts is greater than or equal to 2.
Criterion not met
